# experimentNotes: soluble on expression in E. coli; label from the status in PepcDB or PDB records
measure: soluble on expression in E. coli

{"biopolymerSequence": "MGSDKIHHHHHHMENHTDIETLLTKYFEGNTTPPENEQIEAWLNADEEHLRIAKQLNTLYLAVDTQHITKKIDTEKALDKVKSRTKVRNLSWWGWTQRIAAILSVPLLIGVLALYPDRQQPVVTAQMVEIKTNAGMTTSVLLPDSTVVHLNSESSLRYPTFFAGDVRQVELNGEAYFDVTQHPRKRFIVSTPHHSQVEVYGTSFNVEAYGNETPISTTLIEGSVGFIYKNSKGKFQKSMLSPRQKLVYSPQTGDIKCYATSGESEISWKDGKLIFNDTPLDEVLHMLGKRFNVEFVLSNKGLKGCSFTGTFTHQRLERIMEYFRISSHIRWRYIDSADIKTEKLKIEVY", "result": "not soluble"}
{"biopolymerSequence": "ALGDTLTITLGGSGGTAKVLRKINQDGYTSEYYLPETSSSFRAKVRHTKESVKPNQVQYERHNVEFTETVYASGSTPEFVRQAYVVIRHKVGDVSATVSDLGEALSFYLNEALYGKLIGWES", "result": "soluble"}
{"biopolymerSequence": "MNYKLTLHPGSNPVEEFTSIPHGVTSLDLSLNNLYSISTVELIQAFANTPASVTSLNLSGNSLGFKNSDELVQILAAIPANVTSLNLSGNFLSYKSSDELVKTLAAIPFTITVLDLGWNDFSSKSSSEFKQAFSNLPASITSLNLRGNDLGIKSSDELIQILAAIPANVNSLNLRGNNLASKNCAELAKFLASIPASVTSLDLSANLLGLKSYAELAYIFSSIPNHVVSLNLCLNCLHGPSLENLKLLKDSLKHLQTVYLDYDIVKNMSKEQCKALGAAFPNIQKIILVDKNGKEIHPSHSIPISNLIRELSGKADVPSLLNQCLIFAQKHQTNIEDLNIPDELRESIQTCKPLLEHHHHHH", "result": "soluble"}
{"biopolymerSequence": "MINFDNFKKYQESFGYMAQQLCFPEKLTFHPKTFEETISKDHPAYEDLVAFRNVMMTFSLSEIKAIYTDTFDFTKKAPLYMTYNKFDTQKERGQMLAKLKVLYEMFGLEMVDNELSDYLPLMLQFLQVAEWRNDPRAEENIQLIIMIIEDGTYVMANALGEDNNPYAYVIQALRKTLKLCLTSPKGVKHHA", "result": "not soluble"}
{"biopolymerSequence": "AQAVKEAASSDKPLIVAVTACTTGIAHIYMAEESLIKTGEKMSVNVRVETNGASGVGTPMTAEEINKAVGVIIAADKAVETACFNGKN", "result": "not soluble"}
{"biopolymerSequence": "MAHHHHHHMGTLEAQTQGPGSMSFFLTTPAAIDLGVNIDHVATLRNARGTAYPDPVRAALAAEDAGADAITLHLREDRRHIVDADVRTLRPRVKTRMNLECAVTPEMLDIACEIRPHDACLVPEKRSELTTEGGLDVVGHFDAVRAACKQLADAGVRVSLFIDPDEAQIRAAHETGAPVIELHTGRYADAHDAAEQQREFERIATGVDAGIALGLKVNAGHGLHYTNVQAIAALPGIAELNIGHAIVAHAVFVGWDNAVREMKAIMVAARVAALHGGR", "result": "soluble"}
